Molecular target: T1, Recombinant TNFα containing an N-terminal 13-aa ybbR tag (human, UniProt P01375 77-233, biotin at the ybbR tag in the ELISA assays)
T1 construct: Expressed in E. coli; Same construct used unlabelled (FA) and biotinylated on NeutrAvidin (ELISA); also called tumor necrosis factor-alpha; human TNFα; not shown: N-terminal 13-aa ybbR tag
T1 sequence (P01375 77-233): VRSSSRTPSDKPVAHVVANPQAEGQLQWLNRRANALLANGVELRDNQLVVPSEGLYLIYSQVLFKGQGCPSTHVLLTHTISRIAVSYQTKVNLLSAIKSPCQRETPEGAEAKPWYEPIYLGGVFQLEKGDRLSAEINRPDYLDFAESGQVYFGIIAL
Assay: FA, FITC-peptide + TNFα titration
Positions of bridges follow the written chain, without caps; N, C: chain ends. Non-standard residues stand in square brackets, D forms with d. Primed or numbered codes have the meaning given here. *: point of attachment. FITC = O=C1OC2(c3ccc(O)cc3Oc3cc(O)ccc32)c2ccc(NC(=S)*)cc21; trimesoyl″ = benzene-1,3,5-tricarbonyl scaffold; Phe(3,4-F2) = N[C@@H](Cc1ccc(F)c(F)c1)C(=O)O; 2Nal = N[C@@H](Cc1ccc2ccccc2c1)C(=O)O; Nle = CCCC[C@H](N)C(=O)O; Dap = NC[C@H](N)C(=O)O
Assay readout: Kd (nM)
Your answer is read as nM, so omit the unit and give the number.

Example results:
>>> assay_result("[Nle]W[dS]KY[dH]G[dK]H[Dap]K(FITC)-NH2 (linker N-4-10 via trimesoyl″) [C1-41]")
430
>>> assay_result("[Nle][Phe(3,4-F2)][dS]KY[dF]G[dK]H[Dap]K(FITC)-NH2 (linker N-4-10 via trimesoyl″) [C1-25]")
5400

Consider the binder shown here: [Nle]Y[dS]K[2Nal][dH]G[dK]H[Dap]K(FITC)-NH2 (linker N-4-10 via trimesoyl″) [C1-36] What is its recorded Kd?
1300

Data origin, for the record: patent US10913773B2
